melting point for assorted compounds

Sample records with melting point:
Sample "O=C1c2ccccc2CN1c1ccc(OCCN2CCN(c3nsc4ccccc34)CC2)cc1" ; melting point observed: 166.4 to 166.6 °C

Sample "O=C1c2ccccc2CN1c1cccc(CCN2CCN(c3nsc4ccccc34)CC2)c1" ; melting point observed: 154.5 to 155.3 °C

# evaluate next
Sample "O=C1c2ccccc2CN1c1ccccc1CCN1CCN(c2nsc3ccccc23)CC1" ; melting point observed: 207.6 to 208 °C
